# Measured target: P2Y purinoceptor 2 (Homo sapiens, UniProt P41231)
# Sequence (P41231 whole entry): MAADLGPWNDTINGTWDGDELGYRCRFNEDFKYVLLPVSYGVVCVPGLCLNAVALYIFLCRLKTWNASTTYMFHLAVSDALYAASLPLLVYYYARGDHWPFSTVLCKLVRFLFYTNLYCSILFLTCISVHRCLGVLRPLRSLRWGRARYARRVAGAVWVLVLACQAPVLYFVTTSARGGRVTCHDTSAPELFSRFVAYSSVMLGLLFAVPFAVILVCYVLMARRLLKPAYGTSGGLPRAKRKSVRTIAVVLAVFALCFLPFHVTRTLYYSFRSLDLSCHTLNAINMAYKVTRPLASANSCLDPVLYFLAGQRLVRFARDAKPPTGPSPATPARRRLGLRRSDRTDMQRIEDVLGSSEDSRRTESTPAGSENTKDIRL
# Procedure details: Antagonist activity at N-terminal HA epitope-tagged wild type 4 human P2Y2 receptor expressed in human 1321N1 cells assessed as inhibition of UTP-induced calcium mobilization
# Format: functional, cell-based
pIC50: −log10 of the molar value.

[
  {
    "Chemical string": "COc1ccc(Nc2cc(S(=O)(=O)O)c(N)c3c2C(=O)c2ccccc2C3=O)cc1",
    "pIC50": 4.66
  }
]

====

# Measured target: P2Y purinoceptor 2 (Homo sapiens, UniProt P41231, Y118A)
# Sequence (P41231 whole entry Y118A): as the sequence (P41231 whole entry) above, with Y118A counted along it
# Procedure details: Agonist activity at N-terminal HA epitope-tagged human P2Y2 receptor Y118A mutant expressed in human 1321N1 cells assessed as increase in intracellular calcium level
Measurement label: EC50

[
  {
    "Compound": "Nc1ncnc2c1ncn2[C@@H]1O[C@H](COP(=O)(O)OP(=O)(O)OP(=O)(O)O)[C@@H](O)[C@H]1O [ADENOSINE TRIPHOSPHATE]",
    "Measurement label": "EC50",
    "Result value": "299 nM"
  },
  {
    "Compound": "Nc1ncnc2c1ncn2[C@@H]1O[C@H](COP(=O)(O)OP(=O)(O)OP(=O)(O)OP(=O)(O)OC[C@H]2O[C@@H](n3cnc4c(N)ncnc43)[C@H](O)[C@@H]2O)[C@@H](O)[C@H]1O [DIADENOSINE TETRAPHOSPHATE]",
    "Measurement label": "EC50",
    "Result value": "345 nM"
  },
  {
    "Compound": "O=c1ccn([C@@H]2O[C@H](COP(=O)(O)OP(=O)(O)OP(=O)(O)O)[C@@H](O)[C@H]2O)c(=O)[nH]1 [URIDINE TRIPHOSPHATE]",
    "Measurement label": "EC50",
    "Result value": "157 nM"
  }
]

====

# Efficacy values compiled below
# Measured target: P2Y purinoceptor 2 (Homo sapiens, UniProt P41231)
# Procedure details: Agonist activity at N-terminal HA epitope-tagged wild type 3 human P2Y2 receptor expressed in human 1321N1 cells assessed as increase in intracellular calcium level relative to carbachol
# Type: functional, cell-based

[
  {
    "Compound": "O=c1ccn([C@@H]2O[C@H](COP(=O)(O)OP(=O)(O)OP(=O)(O)OP(=O)(O)OC[C@H]3O[C@@H](n4ccc(=O)[nH]c4=O)[C@H](O)[C@@H]3O)[C@@H](O)[C@H]2O)c(=O)[nH]1",
    "Efficacy [%]": 60
  },
  {
    "Compound": "O=c1ccn([C@@H]2O[C@H](COP(=O)(O)OP(=O)(O)OP(=O)(O)O)[C@@H](O)[C@H]2O)c(=O)[nH]1 [URIDINE TRIPHOSPHATE]",
    "Efficacy [%]": 100
  },
  {
    "Compound": "Nc1ncnc2c1ncn2[C@@H]1O[C@H](COP(=O)(O)OP(=O)(O)OP(=O)(O)O)[C@@H](O)[C@H]1O [ADENOSINE TRIPHOSPHATE]",
    "Efficacy [%]": 92
  },
  {
    "Compound": "Nc1ncnc2c1ncn2[C@@H]1O[C@H](COP(=O)(O)OP(=O)(O)OP(=O)(O)OP(=O)(O)OC[C@H]2O[C@@H](n3cnc4c(N)ncnc43)[C@H](O)[C@@H]2O)[C@@H](O)[C@H]1O [DIADENOSINE TETRAPHOSPHATE]",
    "Efficacy [%]": 68
  }
]

====

# EC50 values compiled below
# Measured target: P2Y purinoceptor 2 (Homo sapiens, UniProt P41231, R194H)
# Sequence (P41231 whole entry R194H): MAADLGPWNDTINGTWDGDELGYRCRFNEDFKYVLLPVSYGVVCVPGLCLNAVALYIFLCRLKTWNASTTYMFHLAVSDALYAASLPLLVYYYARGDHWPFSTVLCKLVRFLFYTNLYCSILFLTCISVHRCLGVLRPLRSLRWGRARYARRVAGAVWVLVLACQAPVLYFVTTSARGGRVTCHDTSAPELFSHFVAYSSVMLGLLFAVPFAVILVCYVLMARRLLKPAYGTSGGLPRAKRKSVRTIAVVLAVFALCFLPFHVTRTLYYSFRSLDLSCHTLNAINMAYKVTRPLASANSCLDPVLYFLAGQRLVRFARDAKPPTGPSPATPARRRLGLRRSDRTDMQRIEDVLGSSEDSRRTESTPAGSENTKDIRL
# Procedure details: Agonist activity at N-terminal HA epitope-tagged human P2Y2 receptor R194H mutant expressed in human 1321N1 cells assessed as increase in intracellular calcium level
Measurement label: EC50 (nM)

[
  {
    "Compound": "Nc1ncnc2c1ncn2[C@@H]1O[C@H](COP(=O)(O)OP(=O)(O)OP(=O)(O)O)[C@@H](O)[C@H]1O [ADENOSINE TRIPHOSPHATE]",
    "Result value": 111
  },
  {
    "Compound": "Nc1ncnc2c1ncn2[C@@H]1O[C@H](COP(=O)(O)OP(=O)(O)OP(=O)(O)OP(=O)(O)OC[C@H]2O[C@@H](n3cnc4c(N)ncnc43)[C@H](O)[C@@H]2O)[C@@H](O)[C@H]1O [DIADENOSINE TETRAPHOSPHATE]",
    "Result value": 185
  },
  {
    "Compound": "O=c1ccn([C@@H]2O[C@H](COP(=O)(O)OP(=O)(O)OP(=O)(O)O)[C@@H](O)[C@H]2O)c(=O)[nH]1 [URIDINE TRIPHOSPHATE]",
    "Result value": 121
  }
]

====

# Efficacy values compiled below
# Measured target: P2Y purinoceptor 2 (Homo sapiens)
# Procedure details: Agonist activity at N-terminal HA epitope-tagged wild type 4 human P2Y2 receptor expressed in human 1321N1 cells assessed as increase in intracellular calcium level relative to carbachol
# Type: functional, cell-based
Measurement label: Efficacy

[
  {
    "Molecule": "Nc1ncnc2c1ncn2[C@@H]1O[C@H](COP(=O)(O)OP(=O)(O)OP(=O)(O)OP(=O)(O)OC[C@H]2O[C@@H](n3cnc4c(N)ncnc43)[C@H](O)[C@@H]2O)[C@@H](O)[C@H]1O [DIADENOSINE TETRAPHOSPHATE]",
    "Result value": "100%"
  },
  {
    "Molecule": "O=c1ccn([C@@H]2O[C@H](COP(=O)(O)OP(=O)(O)OP(=O)(O)O)[C@@H](O)[C@H]2O)c(=O)[nH]1 [URIDINE TRIPHOSPHATE]",
    "Result value": "138%"
  },
  {
    "Molecule": "Nc1ncnc2c1ncn2[C@@H]1O[C@H](COP(=O)(O)OP(=O)(O)OP(=O)(O)O)[C@@H](O)[C@H]1O [ADENOSINE TRIPHOSPHATE]",
    "Result value": "110%"
  },
  {
    "Molecule": "O=c1ccn([C@@H]2O[C@H](COP(=O)(O)OP(=O)(O)OP(=O)(O)OP(=O)(O)OC[C@H]3O[C@@H](n4ccc(=O)[nH]c4=O)[C@H](O)[C@@H]3O)[C@@H](O)[C@H]2O)c(=O)[nH]1",
    "Result value": "98%"
  }
]

====

# Measured target: P2Y purinoceptor 2 (Homo sapiens, UniProt P41231, R177A/R180A)
# Sequence (P41231 whole entry R177A/R180A): as the sequence (P41231 whole entry) above, with R177A, R180A counted along it
# Procedure details: Agonist activity at N-terminal HA epitope-tagged human P2Y2 receptor R177A_R180A double mutant expressed in human 1321N1 cells assessed as increase in intracellular calcium level
pEC50: −log10 of the molar value.

[
  {
    "Compound": "Nc1ncnc2c1ncn2[C@@H]1O[C@H](COP(=O)(O)OP(=O)(O)OP(=O)(O)O)[C@@H](O)[C@H]1O [ADENOSINE TRIPHOSPHATE]",
    "Measured target": "P2Y purinoceptor 2 (Homo sapiens, UniProt P41231, R177A/R180A)",
    "pEC50": 6.62
  },
  {
    "Compound": "Nc1ncnc2c1ncn2[C@@H]1O[C@H](COP(=O)(O)OP(=O)(O)OP(=O)(O)OP(=O)(O)OC[C@H]2O[C@@H](n3cnc4c(N)ncnc43)[C@H](O)[C@@H]2O)[C@@H](O)[C@H]1O [DIADENOSINE TETRAPHOSPHATE]",
    "Measured target": "P2Y purinoceptor 2 (Homo sapiens, UniProt P41231, R177A/R180A)",
    "pEC50": 6.18
  },
  {
    "Compound": "O=c1ccn([C@@H]2O[C@H](COP(=O)(O)OP(=O)(O)OP(=O)(O)O)[C@@H](O)[C@H]2O)c(=O)[nH]1 [URIDINE TRIPHOSPHATE]",
    "Measured target": "P2Y purinoceptor 2 (Homo sapiens, UniProt P41231, R177A/R180A)",
    "pEC50": 6.91
  }
]

====

# EC50 values compiled below
# Measured target: P2Y purinoceptor 2 (Homo sapiens, UniProt P41231, S296A)
# Sequence (P41231 whole entry S296A): as the sequence (P41231 whole entry R194H) above, with H194R, S296A counted along it
# Procedure details: Agonist activity at N-terminal HA epitope-tagged human P2Y2 receptor S296A mutant expressed in human 1321N1 cells assessed as increase in intracellular calcium level

[
  {
    "Compound": "O=c1ccn([C@@H]2O[C@H](COP(=O)(O)OP(=O)(O)OP(=O)(O)O)[C@@H](O)[C@H]2O)c(=O)[nH]1 [URIDINE TRIPHOSPHATE]",
    "EC50": "> 300 µM"
  },
  {
    "Compound": "Nc1ncnc2c1ncn2[C@@H]1O[C@H](COP(=O)(O)OP(=O)(O)OP(=O)(O)OP(=O)(O)OC[C@H]2O[C@@H](n3cnc4c(N)ncnc43)[C@H](O)[C@@H]2O)[C@@H](O)[C@H]1O [DIADENOSINE TETRAPHOSPHATE]",
    "EC50": "> 300 µM"
  },
  {
    "Compound": "Nc1ncnc2c1ncn2[C@@H]1O[C@H](COP(=O)(O)OP(=O)(O)OP(=O)(O)O)[C@@H](O)[C@H]1O [ADENOSINE TRIPHOSPHATE]",
    "EC50": "> 300 µM"
  }
]
